Tested on: Dd2
Assay: qHTS profiling for inhibitors of Plasmodium falciparum proliferation (AID 504749); also: nearly all actives have a fitted effect of over 60% in size
Conditions: P. falciparum in erythrocytes, SYBR Green DNA, 72 h; series mostly up to 12.8 µM
Results filed as inconclusive are left out. Calls of active or inactive are those of the source. Calls follow the shape of the dose curve; as a rule, active = well fitted inhibition curve with a large enough effect; inconclusive = small, poorly fitted or top-dose-only effect; inactive = flat fitted curve, though single readings scatter.
Your answer must be one of the following: active, inactive

MOLECULE: C=CC1=C(C(=O)O)N2C(=O)[C@@H](NC(=O)/C(=N\OCC(=O)O)c3csc(N)n3)[C@@H]2SC1
ASSIGNED CLASS: inactive
//
MOLECULE: CC1CCC(C(C)C)C(=O)C1 (centres undefined)
ASSIGNED CLASS: inactive
//
MOLECULE: C=CCN1C(=CCO)[C@H]2C[C@H]3[C@@H]1CC[C@@]31c3ccccc3N3C=C4[C@@H]5N(/C=C/2[C@H]31)c1ccccc1[C@]51CC[C@H]2[C@H]1C[C@@H]4/C(=C/CO)N2CC=C
ASSIGNED CLASS: inactive

Now look at this entry.
-- ask Tell me the assay call for C=C1c2c(Cl)ccc(O)c2C(O)=C2C(=O)[C@@]3(O)C(O)=C(C(N)=O)C(=O)[C@@H](N(C)C)[C@@H]3[C@@H](O)[C@H]12 please.
-- reply active
